The measurements presented in this section are drawn from patent US8993543B2.

Target: S1P1 receptor (Homo sapiens)
Sequence (P21453 whole entry): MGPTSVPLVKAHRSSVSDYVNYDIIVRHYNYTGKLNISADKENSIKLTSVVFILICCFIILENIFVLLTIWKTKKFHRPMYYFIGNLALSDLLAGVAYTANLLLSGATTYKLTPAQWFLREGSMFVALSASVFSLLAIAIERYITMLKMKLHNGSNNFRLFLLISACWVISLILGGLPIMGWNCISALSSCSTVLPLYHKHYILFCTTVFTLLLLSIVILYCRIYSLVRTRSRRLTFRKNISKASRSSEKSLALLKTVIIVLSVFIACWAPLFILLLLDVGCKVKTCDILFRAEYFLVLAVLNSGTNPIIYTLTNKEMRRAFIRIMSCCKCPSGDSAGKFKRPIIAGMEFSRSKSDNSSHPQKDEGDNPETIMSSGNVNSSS
endpoint: Kd (nM)
API: value field is a number in nM; no unit string.

# returns recorded Kd (system: S1P1 receptor (Homo sapiens)) for CCC[C@](N)(CCc1ccc(Sc2cc(OCC)ccc2O)cc1Cl)COP(=O)(O)O
1.6

* * *

Molecular target: Human S1P3 receptor (Homo sapiens, UniProt Q99500)
Sequence (Q99500 whole entry): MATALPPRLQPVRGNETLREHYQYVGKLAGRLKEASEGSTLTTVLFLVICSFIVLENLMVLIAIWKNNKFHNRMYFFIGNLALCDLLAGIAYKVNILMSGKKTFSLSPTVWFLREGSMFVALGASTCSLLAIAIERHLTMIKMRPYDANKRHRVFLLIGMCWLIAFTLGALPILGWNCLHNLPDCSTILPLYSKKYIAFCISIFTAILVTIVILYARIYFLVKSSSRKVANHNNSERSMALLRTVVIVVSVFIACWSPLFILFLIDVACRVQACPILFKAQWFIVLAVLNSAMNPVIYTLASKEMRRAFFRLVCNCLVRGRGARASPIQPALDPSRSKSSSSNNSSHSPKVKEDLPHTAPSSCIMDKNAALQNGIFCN
Assay: Suppression of S1P-induced cellular calcium mobilization in human S1P3 receptor-expression CHO cells (Schild plot, Kd)
Settings: Fluo3 calcium mobilization by S1P, Schild plot analysis, read-out: S1P3 dissociation constant Kd
pKd: −log10 of the molar value.
This listing pairs molecules with measured pKd.

Below are worked cases with known answers.
{"molecule": "CCC[C@](N)(CCc1ccc(Sc2cc(OCC)ccc2O)cc1Cl)COP(=O)(O)O [Example 2]", "assay.target": "Human S1P3 receptor (Homo sapiens, UniProt Q99500)", "result": "> 11.00"}
{"molecule": "C=CC[C@](N)(CCc1ccc(Sc2cc(OCC)ccc2O)cc1Cl)COP(=O)(O)O [Example 1]", "assay.target": "Human S1P3 receptor (Homo sapiens, UniProt Q99500)", "result": "> 11.00"}
{"molecule": "N[C@@](CCCO)(CCc1ccc(Sc2cc(C3CC3)ccc2O)cc1Cl)COP(=O)(O)O [compound 19]", "assay.target": "Human S1P3 receptor (Homo sapiens, UniProt Q99500)", "result": "9.00 to 10.00"}
{"molecule": "C=CC[C@](N)(CCc1ccc(Sc2cc(C#N)ccc2O)cc1Cl)COP(=O)(O)O [compound 28]", "assay.target": "Human S1P3 receptor (Homo sapiens, UniProt Q99500)", "result": "9.00 to 10.00"}
{"molecule": "CCC[C@](N)(CCc1ccc(Sc2cc(C#N)ccc2O)cc1Cl)COP(=O)(O)O [compound 35]", "assay.target": "Human S1P3 receptor (Homo sapiens, UniProt Q99500)", "result": "9.00 to 10.00"}

What value of pKd on Human S1P3 receptor (Homo sapiens, UniProt Q99500) does CCC[C@](N)(CCc1ccc(Sc2cc(C(C)=O)ccc2O)cc1Cl)COP(=O)(O)O [compound 36] have?
9.00 to 10.00
